- Test system: Wolbachia pipientis
- TEST DESCRIPTION: Anti-Wolbachia Cell-Based Screen
- Assay type: functional
- Set-up: scale not given: in the data most compounds retested in dose-response had high values
- TEST CONTEXT: 5 µM
Among all 48,000 compounds or so, about 13,000 (27%) showed an effect of 50% or more. The list shows a part of the results.
PARAMETER: Percent Effect
Form entry: enter the amount, then its unit.

[
  {
    "COMPOUND": "Cc1nc(N2CCOCC2)nc2c1COCC21CCN(CC(C)C)C1 (configuration not stated)",
    "Percent Effect": "0.306%"
  },
  {
    "COMPOUND": "O=c1cc2c(nn1CN1CCN(c3cccc(Cl)c3)CC1)CCC2",
    "Percent Effect": "-5.597%"
  },
  {
    "COMPOUND": "COCCCNc1nc(CNC(=O)C2CCC2)cc(-c2ccco2)n1",
    "Percent Effect": "103.2%"
  },
  {
    "COMPOUND": "CCC(=O)N1CCC2(COCc3c(C)nc(N(C)C)nc32)C1 (configuration not stated)",
    "Percent Effect": "5.169%"
  },
  {
    "COMPOUND": "CCS(=O)(=O)NCCNC(=O)c1cc(Cl)c2c(c1)OCCCO2",
    "Percent Effect": "12.52%"
  }
]

For every item in the list below, what is its measured Percent Effect?
1. Cc1cc(NCc2csc(-c3ccco3)n2)ccc1C(N)=O
2. CC(=O)NCC(=O)N1CCC2(COCc3c(C)nc(N(C)C)nc32)C1 (configuration not stated)
3. COCCNc1ccccc1CNC(=O)C1CCCOC1 (configuration not stated)
4. COCCCNc1nc(CNC(C)=O)cc(-c2ccco2)n1
5. Cc1cnn(CCNC(C)c2nnc(-c3cccc(Cl)c3)o2)c1 (configuration not stated)
6. COCCN(C(=O)c1nc(-c2ccco2)sc1C)C1CC1
7. Cc1ccc(N2CC3(CCN(S(=O)(=O)C4CC4)C3)C2)nn1

1. -17.43%
2. 108.4%
3. -2.92%
4. 96.87%
5. -21.78%
6. 4.119%
7. -11.71%

---

- System: Wolbachia pipientis
- TEST DESCRIPTION: Anti-Wolbachia Cell-Based Screen
- Assay type: functional
- Parameters: scale not given: in the data most compounds retested in dose-response had high values
- TEST CONTEXT: 5 µM
Hit rate of the full screen: of about 48,000 compounds, about 13,000 (27%) showed an effect of 50% or more. Some of the results follow.
PARAMETER: Percent Effect (%)
One number for each entry, in %.

Solved cases below.
[
  {
    "MOLECULE": "CNC(=O)C(C)(C)N1CCC[C@H]1C(=O)NCC(C)C.Cl",
    "UNIT NAME": "%",
    "Percent Effect": 3.09
  },
  {
    "MOLECULE": "O=C(CSCC1CC1)N1CCCC(c2nccn2Cc2ccccn2)C1 (configuration not stated)",
    "UNIT NAME": "%",
    "Percent Effect": -4.276
  },
  {
    "MOLECULE": "CCOC(=O)C1CCCN(Cc2c[nH]nc2-c2cc3ccccc3o2)C1 (configuration not stated)",
    "UNIT NAME": "%",
    "Percent Effect": -24.88
  }
]

For every item in the list below, what is its measured Percent Effect?
1. Cc1cnccc1-c1cnn(CCNC(=O)c2ccccn2)c1C1CC1.Cl
2. Cc1cccnc1[C@H](C)NC(=O)Cc1cc2c(cc1Cl)OCCO2

[221.9, 3.322]
